Attribute: solubility
Test: Solubility in HEPES buffer
Assay type: physicochemical
Details: Table 26; HEPES buffer pH 7.4

input: Fill in: solubility of CCCC[C@H](NC(=O)[C@H](Cc1ccccc1)NC(=O)CNC(=O)[C@@H](C)NC(=O)[C@@H](N)Cc1ccc(O)cc1)C(=O)N1CCC[C@H]1C(=O)N[C@@H](CC(C)C)C(=O)N[C@@H](Cc1c[nH]c2ccccc12)C(=O)NCc1cc(C(F)(F)F)cc(C(F)(F)F)c1 [TY045] is ___
output: < 1 µg/mL

input: Dear colleague, I am looking for the recorded solubility of the following compound: CCCC[C@H](NC(=O)[C@H](Cc1ccccc1)NC(=O)CNC(=O)[C@@H](C)NC(=O)[C@@H](N)Cc1ccc(O)cc1)C(=O)N1CCC[C@H]1C(=O)NC(COC1OC(CO)C(O)C(O)C1O)C(=O)N[C@@H](Cc1c[nH]c2ccccc12)C(=O)NCc1cc(C(F)(F)F)cc(C(F)(F)F)c1 (stereo partly drawn) [TY041]
output: < 1 µg/mL

input: Form field: reported solubility of CC(C)C[C@H](NC(=O)[C@@H]1CCCN1C(=O)C(COC1OC(CO)C(O)C(O)C1O)NC(=O)[C@H](Cc1ccccc1)NC(=O)CNC(=O)[C@@H](C)NC(=O)[C@@H](N)Cc1ccc(O)cc1)C(=O)N[C@@H](Cc1c[nH]c2ccccc12)C(=O)NCc1cc(C(F)(F)F)cc(C(F)(F)F)c1 (stereo partly drawn) [TY042]
output: 1.4 µg/mL

---

Molecular target: human δ opioid receptors (hDOR) (Homo sapiens, UniProt P41143)
Construct: expressed in transfected cells; host or cells: HN9.10 neuroblastoma cell line, pCDNA3, neomycin-selected clones
Sequence (P41143 whole entry): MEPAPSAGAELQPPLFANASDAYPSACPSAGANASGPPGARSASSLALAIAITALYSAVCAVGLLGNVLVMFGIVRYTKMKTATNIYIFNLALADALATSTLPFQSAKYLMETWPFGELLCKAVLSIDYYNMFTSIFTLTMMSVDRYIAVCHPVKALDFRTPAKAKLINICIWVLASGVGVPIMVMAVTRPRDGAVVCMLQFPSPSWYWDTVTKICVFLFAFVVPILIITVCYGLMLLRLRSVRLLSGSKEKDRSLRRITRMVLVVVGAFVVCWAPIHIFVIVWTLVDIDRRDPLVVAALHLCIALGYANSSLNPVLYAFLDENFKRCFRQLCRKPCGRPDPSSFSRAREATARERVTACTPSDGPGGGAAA
Assay: [35S]GTP-γ-S binding assay, hDOR
Assay type: biochemical
Conditions: Table 39; read-out: GTP binding hDOR EC50
Peptide text beside a SMILES is read from it.
Readout Kind: pEC50
Would you please state pEC50, meaning minus log10 of the concentration in mol/L, as a bare number?

Below are worked cases with known answers.
>>> observed_value("CC(C)C[C@H](NC(=O)[C@@H]1CCCN1C(=O)[C@H](CC(C)C)NC(=O)[C@H](Cc1ccccc1)NC(=O)CNC(=O)[C@@H](C)NC(=O)[C@@H](N)Cc1ccc(O)cc1)C(=O)N[C@@H](Cc1c[nH]c2ccccc12)C(=O)OCc1cc(C(F)(F)F)cc(C(F)(F)F)c1")
8.02
>>> observed_value("CCCC[C@@H]1NC(=O)[C@H](Cc2ccccc2)NC(=O)CNC(=O)[C@H](NC(=O)[C@@H](N)Cc2ccc(O)cc2)CSSC[C@H](C(=O)N[C@@H](Cc2c[nH]c3ccccc23)C(=O)NCc2cc(C(F)(F)F)cc(C(F)(F)F)c2)NC(=O)[C@@H]2CCCN2C1=O [TY038, [D-Cys^2, D-Cys^7]TY027] (HELM PEPTIDE1{Y.[dC].G.F.[Nle].P.[dC].W.[FC(F)(F)c1cc(CN[*:1])cc(C(F)(F)F)c1]}$PEPTIDE1,PEPTIDE1,2:R3-7:R3$$$V2.0; N-terminus assumed)")
7.85

input: Request: pEC50, test system human δ opioid receptors (hDOR) (Homo sapiens, UniProt P41143), entry `CCCC[C@H](NC(=O)[C@H](Cc1ccccc1)NC(=O)CNC(=O)[C@@H](C)NC(=O)[C@@H](N)Cc1ccc(O)cc1)C(=O)N1CCC[C@H]1C(=O)N[C@@H](CC(C)C)C(=O)N[C@@H](Cc1c[nH]c2ccccc12)C(=O)OCc1cc(C(F)(F)F)cc(C(F)(F)F)c1`
output: 8.40

input: Please state recorded pEC50 (tested on human δ opioid receptors (hDOR) (Homo sapiens, UniProt P41143)) of `CSCC[C@H](NC(=O)[C@H](Cc1ccccc1)NC(=O)CNC(=O)[C@@H](C)NC(=O)[C@@H](N)Cc1ccc(O)cc1)C(=O)N1CCC[C@H]1C(=O)N[C@@H](CC(C)C)C(=O)N[C@@H](Cc1c[nH]c2ccccc12)C(=O)OCc1ccccc1`
output: 8.47

input: Quick check: pEC50 on human δ opioid receptors (hDOR) (Homo sapiens, UniProt P41143), item CCCC[C@@H]1NC(=O)[C@H](Cc2ccccc2)NC(=O)CNC(=O)[C@H](NC(=O)[C@@H](N)Cc2ccc(O)cc2)CSSC[C@@H](C(=O)N[C@@H](Cc2c[nH]c3ccccc23)C(=O)NCc2cc(C(F)(F)F)cc(C(F)(F)F)c2)NC(=O)[C@@H]2CCCN2C1=O [TY035, [D-Cys^2, Cys^7]TY027] (HELM PEPTIDE1{Y.[dC].G.F.[Nle].P.C.W.[FC(F)(F)c1cc(CN[*:1])cc(C(F)(F)F)c1]}$PEPTIDE1,PEPTIDE1,2:R3-7:R3$$$V2.0; N-terminus assumed) ?
output: 10.70

---

Molecular target: δ opioid receptors (MVD) (Mus musculus)
Construct: from tissue; host or cells: mouse (ICR) isolated vas deferens
Sequence (P32300 whole entry): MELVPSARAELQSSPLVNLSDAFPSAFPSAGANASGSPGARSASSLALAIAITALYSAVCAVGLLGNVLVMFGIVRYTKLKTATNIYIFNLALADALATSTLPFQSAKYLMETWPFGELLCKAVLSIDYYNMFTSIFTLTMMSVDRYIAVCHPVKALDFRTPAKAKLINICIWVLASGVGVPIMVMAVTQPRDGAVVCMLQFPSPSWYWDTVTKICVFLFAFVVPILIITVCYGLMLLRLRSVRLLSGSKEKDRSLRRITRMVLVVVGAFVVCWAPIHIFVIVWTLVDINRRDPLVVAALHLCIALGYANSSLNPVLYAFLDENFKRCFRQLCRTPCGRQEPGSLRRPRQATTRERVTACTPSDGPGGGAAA
Test: Mouse isolated vas deferens (MVD) assay, opioid agonist
Peptide text beside a SMILES is read from it.
Measured IC50, listed per entry for reference.
Please give the number followed by its unit.

Study these solved cases before continuing.
>>> observed_value("CC(C)C[C@H](NC(=O)[C@@H]1CCCN1C(=O)[C@H](CC(C)C)NC(=O)[C@H](Cc1ccccc1)NC(=O)CNC(=O)[C@@H](C)NC(=O)[C@@H](N)Cc1ccc(O)cc1)C(=O)N[C@@H](Cc1c[nH]c2ccccc12)C(=O)OCc1cc(C(F)(F)F)cc(C(F)(F)F)c1 [TY004]")
"101 nM"
>>> observed_value("CSCC[C@H](NC(=O)[C@H](Cc1ccccc1)NC(=O)CNC(=O)[C@@H](C)NC(=O)[C@@H](N)Cc1ccc(O)cc1)C(=O)N[C@@H](Cc1c[nH]c2ccccc12)C(=O)OCc1cc(C(F)(F)F)cc(C(F)(F)F)c1 [NP38] (HELM PEPTIDE1{Y.[dA].G.F.M.W.[FC(F)(F)c1cc(CO[*:1])cc(C(F)(F)F)c1]}$$$$V2.0; N-terminus assumed)")
"9.07 nM"

input: I would be grateful if you could share the reported IC50 for C[C@H](NC(=O)[C@H](Cc1ccccc1)NC(=O)CNC(=O)[C@@H](C)NC(=O)[C@@H](N)Cc1ccc(O)cc1)C(=O)N[C@@H](Cc1c[nH]c2ccccc12)C(=O)OCc1cc(C(F)(F)F)cc(C(F)(F)F)c1 [NP31] (HELM PEPTIDE1{Y.[dA].G.F.A.W.[FC(F)(F)c1cc(CO[*:1])cc(C(F)(F)F)c1]}$$$$V2.0; N-terminus assumed) .
output: 6.4 nM

---

Target: human δ opioid receptors (hDOR) (Homo sapiens, UniProt P41143)
Construct: expressed in transfected cells; host or cells: HN9.10 neuroblastoma cell line, pCDNA3, neomycin-selected clones
Experiment: [35S]GTP-γ-S binding assay, hDOR
Format: biochemical
Settings: Table 39; read-out: GTP binding hDOR Emax
Peptide text beside a SMILES is read from it.
Listed next: entries and their corresponding Emax.
# value in %; strip the unit string

The examples below pair each entry with its known result.
>>> observed_value("CC(C)C[C@H](NC(=O)[C@@H]1CCCN1C(=O)[C@@H]1CSSC[C@@H](NC(=O)[C@@H](N)Cc2ccc(O)cc2)C(=O)NCC(=O)N[C@@H](Cc2ccccc2)C(=O)N1)C(=O)N[C@@H](Cc1c[nH]c2ccccc12)C(=O)NCc1cc(C(F)(F)F)cc(C(F)(F)F)c1")
37
>>> observed_value("CSCC[C@H](NC(=O)[C@H](Cc1ccccc1)NC(=O)CNC(=O)[C@@H](C)NC(=O)[C@@H](N)Cc1ccc(O)cc1)C(=O)N1CCC[C@H]1C(=O)N[C@@H](CC(C)C)C(=O)N[C@@H](Cc1c[nH]c2ccccc12)C(=O)O")
62
>>> observed_value("CCCC[C@@H]1NC(=O)[C@H](Cc2ccccc2)NC(=O)CNC(=O)[C@H](NC(=O)[C@@H](N)Cc2ccc(O)cc2)CSSC[C@H](C(=O)N[C@@H](Cc2c[nH]c3ccccc23)C(=O)NCc2cc(C(F)(F)F)cc(C(F)(F)F)c2)NC(=O)[C@@H]2CCCN2C1=O [TY038, [D-Cys^2, D-Cys^7]TY027] (HELM PEPTIDE1{Y.[dC].G.F.[Nle].P.[dC].W.[FC(F)(F)c1cc(CN[*:1])cc(C(F)(F)F)c1]}$PEPTIDE1,PEPTIDE1,2:R3-7:R3$$$V2.0; N-terminus assumed)")
87

Could you now look at the following molecule, please?
input: Notebook: pull reported Emax for human δ opioid receptors (hDOR) (Homo sapiens, UniProt P41143), entry CC(C)C[C@H](NC(=O)[C@@H]1CCCN1C(=O)[C@H](CC[S+](C)[O-])NC(=O)[C@H](Cc1ccccc1)NC(=O)CNC(=O)[C@@H](C)NC(=O)[C@@H](N)Cc1ccc(O)cc1)C(=O)N[C@@H](Cc1c[nH]c2ccccc12)C(=O)OCc1cc(C(F)(F)F)cc(C(F)(F)F)c1 (stereo partly shown)
output: 52.8
